System: Plasmodium falciparum
Experiment: GSK_TCMDC: Inhibition of Plasmodium falciparum Dd2 in whole red blood cells, using parasite LDH activity as an index of growth. Test compounds present at 2uM
Type: functional
Categorized via Inhibition: b0: < 30%; b1: ≥ 30% and < 60%; b2: ≥ 60%

compound: CN1CCN(CCCN(Cc2cccc(-c3cccc(CNCc4ccc5c(c4)OCO5)c3)c2)C(=O)CCC2CCCC2)CC1.O=C(O)C(F)(F)F
group: b2

compound: Cl.N#Cc1cccc(/C=C/C(=O)NC2CCC(CCN3CCc4ccc(-c5cnccn5)cc4CC3)CC2)c1 (stereo unspecified)
group: b1

compound: CCN1CCN(Cc2ccc(-c3ccc(NS(=O)(=O)c4cccc5cccnc45)cc3)cc2)CC1.O=C(O)C(F)(F)F
group: b1

compound: C=C[C@]1(C)C[C@@H](OC(=O)NC(=O)C2CCN(C(=O)CSc3ccccc3)CC2)[C@]2(C)[C@H](C)CC[C@]3(CCC(=O)[C@H]32)[C@@H](C)[C@@H]1O
group: b2

Sort into band: O=C(Nc1nc2cc(S(=O)(=O)NCc3ccc(Cl)c(Cl)c3)ccc2n1CCCn1ccnc1)c1ccc(Cl)cc1.O=C(O)C(F)(F)F b1

Class label required: CC(C)(C)OC(=O)n1cc(C2CCN(CCCC34CCCc5cccc(c53)NC4=O)CC2)c2ccncc21 (stereo unspecified) b0

Place this compound in its band: CN(C)CC1CCCN1Cc1ccccc1-c1cnn(C)c(=O)c1Oc1cccc(C#N)c1.O=C(O)C(F)(F)F (stereo unspecified) b0

For the record CN1CCC(N(Cc2ccc(N3CCN(Cc4c[nH]c5ccc(Cl)cc45)CC3)nc2)C2CC2)CC1 , report the class its Inhibition corresponds to. b2

Please report the category associated with CC1CCN(Cc2cccc(C(=O)NCc3ccc(F)c(-c4cccc(CN5CCN[C@@H](C)C5)c4)c3)c2)CC1.O=C(O)C(F)(F)F , nothing else. b2

In plain terms, what class is CN1CCN(c2ccc3[nH]c(-c4ccc5[nH]c(-c6ccc([N+](=O)[O-])c(N)c6)nc5c4)nc3c2)CC1 ? b2

###

System: Plasmodium falciparum
Assay: GSK_TCMDC: Inhibition of Plasmodium falciparum Dd2 in whole red blood cells, using parasite LDH activity as an index of growth. Test compounds present at 2uM
Type: functional
observed_property: Inhibition (%)
Numbers only; they are read as %.

compound: CC[C@H](C)CNC(=O)c1cncc(-c2ccc(CNCCOc3ccccc3)cc2)c1.O=C(O)C(F)(F)F
unit_of_measurement: %
Inhibition: 0

Recorded Inhibition for COc1cccc(-c2cc(C(F)(F)F)n3ncc(C(=O)Nc4cc(Cl)ccc4O)c3n2)c1 with Plasmodium falciparum, please? 99

Checklist item: Inhibition tested on Plasmodium falciparum, entry O=C(CN1CCN(S(=O)(=O)C=Cc2ccccc2)CC1)Nc1cc(C(F)(F)F)ccc1Cl , value? 63

Could you share what Inhibition was measured for c1cncc(Oc2ccc(Nc3ccnc4cc(-c5cccc(CN6CCOCC6)c5)ccc34)cc2)c1 , tested on Plasmodium falciparum? 100

So what Inhibition did C#CCOc1ccc(N2C(N)=NC(N)=NC2(C)C)cc1.Cl get with Plasmodium falciparum? 0

Form: Entry = N#Cc1ccc(N[C@@H](CC2CCCCC2)C(=O)NCc2cc(F)c(F)cc2F)c2ccccc12.O=C(O)C(F)(F)F | System = Plasmodium falciparum | Inhibition = ____ 39

Form: Entry = CN1CCN(c2ccnc3ccc(NC(=O)Nc4ccc(Br)cc4)cc23)CC1 | System = Plasmodium falciparum | Inhibition = ____ 99

###

Tested on: HepG2
Experiment: GSK_TCMDC: Percent inhibition of human HepG2 cell line. Test compounds present at 10uM.
Type: functional
Each entry gets 0.0 if its Inhibition stays under 10%, and 1.0 if its Inhibition is 10% or above.

Examples with answers:
compound: CCCc1c(C(=O)OCC)c2cc(O)ccc2n1-c1ccc(OC)cc1
group: 0.0
--
compound: COc1ccc2nc(-c3ccccc3)cc(N/N=C/c3ccc([N+](=O)[O-])cc3)c2c1
group: 1.0
--
compound: Cc1cccc2c(/C=C/C(=O)NC3CCC(CCN4CCc5ccc(C#N)cc5CC4)CC3)c[nH]c12.Cl (stereo not drawn)
group: 1.0

Quick check: does COc1ccc(CC2(c3ccc(F)cc3)N=C(N)N(CCCc3cccnc3)C2=O)cc1.O=C(O)C(F)(F)F (stereo not drawn) have Inhibition greater than or equal to 10%? 1.0

Check this compound for Inhibition at or above 10%: CS(=O)(=O)Cc1ccc(Nc2nccc(-c3c(-c4cccc(NC(=O)c5c(F)cccc5F)c4)nn4ncccc34)n2)cc1 1.0

Check this compound for Inhibition at or above 10%: O=[N+]([O-])c1cccc(/C=N/Nc2ccnc3ccc(C(F)(F)F)cc23)c1 0.0

Assess whether reported Inhibition for CN1CCN(CC(O)CNC(=O)Nc2ccc(Br)cc2)CC1.O=C(O)C(F)(F)F (stereo not drawn) sits at 10% or higher. 0.0

###

System: Plasmodium falciparum
Assay: GSK_TCMDC: Inhibition of Plasmodium falciparum 3D7 in whole red blood cells, using parasite LDH activity as an index of growth. Test compounds present at 2uM
Type: functional
Below, each of the molecules is paired with its reported Inhibition value.
Answer with the value and then the unit.

molecule: Cc1nc(C)c(-c2ccc(Oc3ccc([S+](C)[O-])cc3)cc2)c(O)c1Br (centres undefined)
target_system: Plasmodium falciparum
observed_property: Inhibition
result_value: 91%
//
molecule: O=C(Nc1ccc(OC2CCN(Cc3ccccc3)CC2)c(Cl)c1)c1ccsc1.O=C(O)C(F)(F)F
target_system: Plasmodium falciparum
observed_property: Inhibition
result_value: 87%
//
molecule: CCc1c(C)nc(-n2nc(C)cc2NC(=O)CCc2ccccc2)[nH]c1=O
target_system: Plasmodium falciparum
observed_property: Inhibition
result_value: 97%

State the recorded Inhibition for this entry: CC(=O)Nc1ccc(CN(C)C2CCN(c3cc(NC(=O)c4cccc(C)c4)ccn3)CC2)cc1.O=C(O)C(F)(F)F 94%

Can you look up the measured Inhibition of Cc1ccc(C2(C)CN(CCCOc3cccc(-c4ccc(C(=O)NC(C)C)cc4)c3)CCO2)cc1 (centres undefined) for me? 93%

Returns the measured Inhibition for the input molecule. Input: O=C(Nc1ccccc1)Nc1cccc(-c2cccc(-c3nc4cc(F)ccc4[nH]3)c2)c1 99%

I am curious: what Inhibition value has been reported for Cc1ccccc1CNc1noc(-c2sccc2Br)n1 ? 99%

Consider the molecule shown here: CCCNCc1ccc(-c2ccc(CN(C(=O)c3nn(-c4ccccc4)nc3C)C3CCOCC3)cc2)nc1.O=C(O)C(F)(F)F What is its recorded Inhibition? 98%

# input molecule: COC(=O)c1cccc(NC(=O)NC2CCN(c3ccnc(Nc4ccc(F)cc4)n3)C2)c1 (centres undefined) ; wanted: its Inhibition 100%

###

System: Plasmodium falciparum
Test: GSK_TCMDC: Inhibition of Plasmodium falciparum Dd2 in whole red blood cells, using parasite LDH activity as an index of growth. Test compounds present at 2uM
Format: functional
Entries annotated with measured Inhibition
Give just the number in %; leave the unit off.

query_smiles: O=C(/C=C/c1ccc(C(F)(F)F)cc1)NCCCCCN1CCC(c2c[nH]c3ccccc23)CC1
result_value: 22

// Inhibition lookup, key: O=C(/C=C/c1ccc(Cl)c(Cl)c1)NCCCCCN1CCCN(C(=O)Nc2ccc([N+](=O)[O-])cc2)CC1 28

Find the recorded Inhibition belonging to CC(=O)Nc1cccc(C(=O)Nc2cccc(-c3cccc(-c4nc5cc(F)ccc5[nH]4)c3)c2)c1 and report it. 44

###

Each record here notes measured Inhibition.
System: Plasmodium falciparum
Assay: GSK_TCMDC: Inhibition of Plasmodium falciparum 3D7 in whole red blood cells, using parasite LDH activity as an index of growth. Test compounds present at 2uM
Type: functional
The figure you give is taken to be in %; do not add the unit.

Entry Cc1ccc(C2=NNC3(S2)C(=O)Nc2ccc(C)cc23)cc1 (stereo not drawn) , system Plasmodium falciparum: what Inhibition was measured? 95

State its Inhibition on Plasmodium falciparum: CN(c1ccccc1C(=O)Nc1cc(Cl)ccc1Oc1ccccc1)S(=O)(=O)c1ccccc1 99

Kindly state the measured Inhibition obtained for N#CCCN1CCN(Cc2cccc(-c3ccc(-c4nc5ccccc5[nH]4)cc3)c2)CC1.O=C(O)C(F)(F)F with Plasmodium falciparum. 93

###

Test system: Plasmodium falciparum
Experiment: GSK_TCMDC: Inhibition of Plasmodium falciparum Dd2 in whole red blood cells, using parasite LDH activity as an index of growth. Test compounds present at 2uM
Type: functional
Criterion: Inhibition strictly less than 40%. Met: criterion met. Not met: criterion not met.

Answered examples (6):
compound: CCCCCCCNC(=O)NCC1CCCN(CCCCCNC(=O)/C=C/c2ccc(Cl)c(Cl)c2)C1 (centres undefined)
target_system: Plasmodium falciparum
group: criterion met
--
compound: CCn1ncc(Cl)c1CN(C)S(=O)(=O)c1ccc2ccccc2c1
target_system: Plasmodium falciparum
group: criterion not met
--
compound: CN1CCC(Oc2ccc(CN3CC[C@H](NC(=O)c4ccc(Cl)c(Cl)c4)C3)c3ccccc23)C1.O=C(O)C(F)(F)F (some centres undefined)
target_system: Plasmodium falciparum
group: criterion not met
--
compound: COc1ccc(-c2ccc(NC(=O)c3cccc(Cl)c3)c(F)c2)cc1CN1CCCN(C)CC1.O=C(O)C(F)(F)F
target_system: Plasmodium falciparum
group: criterion not met
--
compound: CCCCCOc1ccc(C(=NC)N(CCCCC)CCCCC)c2ccccc12.I
target_system: Plasmodium falciparum
group: criterion not met
--
compound: CCCCCCc1cc2cc(-c3nc(-c4ccc(OC)cc4)cs3)c(=O)oc2cc1O
target_system: Plasmodium falciparum
group: criterion not met

Is 40% strictly greater than the compound's reported Inhibition? compound: COc1cc2nc(NCCc3ccccc3)nc(NCc3cc(C)no3)c2cc1OC criterion not met

Say whether its Inhibition is strictly beneath 40%. Entry: Cc1cc(N[C@@H](CC(C)C)C(=O)Nc2ccccc2)nc(NCc2ccccc2C)n1.O=C(O)C(F)(F)F criterion not met

Source listed as ChEMBL document CHEMBL1157539.
